Biological target: P2X purinoceptor 7 (Homo sapiens)
Sequence (Q99572 whole entry): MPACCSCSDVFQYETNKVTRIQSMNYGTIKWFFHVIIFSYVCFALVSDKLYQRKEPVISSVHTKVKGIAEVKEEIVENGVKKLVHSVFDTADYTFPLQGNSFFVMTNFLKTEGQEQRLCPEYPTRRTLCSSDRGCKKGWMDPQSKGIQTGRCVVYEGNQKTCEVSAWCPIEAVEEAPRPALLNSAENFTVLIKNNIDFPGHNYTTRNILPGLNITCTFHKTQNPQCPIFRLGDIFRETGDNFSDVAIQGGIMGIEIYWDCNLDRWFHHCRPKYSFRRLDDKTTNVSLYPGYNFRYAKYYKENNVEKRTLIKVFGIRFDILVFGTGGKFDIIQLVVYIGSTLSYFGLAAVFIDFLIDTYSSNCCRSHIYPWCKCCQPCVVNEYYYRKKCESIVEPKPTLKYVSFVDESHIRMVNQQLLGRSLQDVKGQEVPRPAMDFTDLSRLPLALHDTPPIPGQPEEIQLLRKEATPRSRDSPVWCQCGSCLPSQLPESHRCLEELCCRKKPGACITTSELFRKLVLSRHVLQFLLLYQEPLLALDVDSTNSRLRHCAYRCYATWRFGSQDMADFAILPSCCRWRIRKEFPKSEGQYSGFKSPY
Test: Binding affinity to human P2X7 receptor expressed in HEK293 cells assessed as inhibition of BzATP-induced increase in ethidium bromide uptake by fluorescence plate reader analysis
readoutLabel: IC50

Consider O=C(NCc1cccc(C(F)(F)F)c1Cl)[C@@H]1CCC(=O)N1C/C=C/I . Its measured IC50 is 9.8 nM
